- Test system: PPARg homodimer (NR concentration 180 nM)
- test: PBM binding z-score (relative to random genomic background probes); higher = stronger binding; sequences stand for … in GC…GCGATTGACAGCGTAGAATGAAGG
Recorded PBM binding z-score, one value per entry.
reported_metric: PBM binding z-score

INSERT INTO results (entry_sequence, value_observed) VALUES
  ('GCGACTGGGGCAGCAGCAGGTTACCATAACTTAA', -0.687),
  ('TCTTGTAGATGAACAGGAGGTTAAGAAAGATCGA', 0.0799),
  ('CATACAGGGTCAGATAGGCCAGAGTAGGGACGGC', 2.72),
  ('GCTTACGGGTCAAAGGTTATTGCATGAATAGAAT', 3.22),
  ('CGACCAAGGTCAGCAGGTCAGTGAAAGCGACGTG', 2.7),
  ('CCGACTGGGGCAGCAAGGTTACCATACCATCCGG', 0.27),
  ('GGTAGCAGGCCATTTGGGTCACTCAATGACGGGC', 0.75),
  ('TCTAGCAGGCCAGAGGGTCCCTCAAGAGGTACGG', -0.97),
  ('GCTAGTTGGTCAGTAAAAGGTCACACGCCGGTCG', 3.94),
  ('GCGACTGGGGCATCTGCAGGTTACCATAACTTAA', 0.207),
  ('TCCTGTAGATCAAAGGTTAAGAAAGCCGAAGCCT', 1.34),
  ('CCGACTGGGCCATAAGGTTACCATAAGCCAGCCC', 0.396),
  ('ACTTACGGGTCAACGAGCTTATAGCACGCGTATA', 1.42),
  ('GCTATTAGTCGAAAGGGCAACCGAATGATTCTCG', 0.852),
  ('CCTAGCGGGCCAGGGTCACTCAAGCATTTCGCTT', 0.563),
  ('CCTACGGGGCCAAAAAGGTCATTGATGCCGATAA', 2.87),
  ('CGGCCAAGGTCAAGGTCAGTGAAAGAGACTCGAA', 3.93),
  ('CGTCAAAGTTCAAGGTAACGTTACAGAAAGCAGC', 3.53),
  ('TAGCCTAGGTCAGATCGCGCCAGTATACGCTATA', 0.207),
  ('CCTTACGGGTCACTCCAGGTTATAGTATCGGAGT', 1.56),
  ('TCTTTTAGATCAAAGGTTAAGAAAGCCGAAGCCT', 1.05),
  ('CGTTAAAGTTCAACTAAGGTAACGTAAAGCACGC', 2.84),
  ('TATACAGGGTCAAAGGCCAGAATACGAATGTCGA', 2.02),
  ('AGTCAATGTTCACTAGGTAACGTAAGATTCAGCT', 0.288),
  ('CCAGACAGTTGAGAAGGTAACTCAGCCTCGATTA', 1.22),
  ('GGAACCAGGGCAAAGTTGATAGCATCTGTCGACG', 1.1);
